Assay: chemical genetic growth profiling, strain panel (AID 1159580);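 also: tested at 20 µM; growth read once vehicle control cultures reached saturation at 30 °C; 1 = growth at the plate median or of vehicle wells; lower values mean less growth of the strain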
Settings: S. cerevisiae deletion strains, growth OD, locus YER155C, strain BEM2 (second series), hits give low values
Among all 5,500 compounds or so, about 2,000 (36%) were called active. Not shown: some 18% with an inconclusive outcome. Some of the results follow.
Please provide measured normalized growth for the entries that follow.
Reply with just the number.

Asked: Look at this compound and give its reported normalized growth. Cn1c(=O)c2c(ncn2CC(O)CO)n(C)c1=O (stereo unspecified)
Given back: 0.953

Asked: Look at this compound and give its reported normalized growth. "O=C(O)/C=C/c1ccc(O)c(O)c1"
Given back: 1.03

Asked: Look at this compound and give its reported normalized growth. "C#CCCCCCCCCCCCc1ccco1"
Given back: 0.849

Asked: Look at this compound and give its reported normalized growth. "O=C(/C=C/c1ccc(O)c(O)c1)OCCc1ccccc1"
Given back: 0.463

Asked: Look at this compound and give its reported normalized growth. "O=C(O[C@@H]1Cc2c(O)cc(O)cc2O[C@@H]1c1ccc(O)c(O)c1)c1cc(O)c(O)c(O)c1"
Given back: 1.01

Asked: Look at this compound and give its reported normalized growth. "CCCCCCCCCCCCCc1ccco1"
Given back: 0.635
